- tested-target: T1, PUF4 RNA-binding domain (Saccharomyces cerevisiae, UniProt P25339 537-888)
- T1 sequence: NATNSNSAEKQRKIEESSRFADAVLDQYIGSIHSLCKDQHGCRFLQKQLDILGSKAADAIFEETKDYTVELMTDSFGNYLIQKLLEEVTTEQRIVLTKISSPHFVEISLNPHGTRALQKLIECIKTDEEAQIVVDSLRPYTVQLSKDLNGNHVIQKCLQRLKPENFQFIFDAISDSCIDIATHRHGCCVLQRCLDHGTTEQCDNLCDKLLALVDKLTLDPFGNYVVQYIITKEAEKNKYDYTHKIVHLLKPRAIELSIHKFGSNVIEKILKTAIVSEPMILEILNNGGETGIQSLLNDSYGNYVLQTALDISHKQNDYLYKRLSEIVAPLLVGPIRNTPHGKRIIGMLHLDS
- method-summary: Mg; RNA-MaP; 20 mM Na-HEPES pH 7.4, 30 mM KOAc, 0.75 mM MgCl2, 0.1% Tween-20, 5% glycerol, 0.1 mg/mL BSA, 2 mM DTT; 25 C; 0.0125-409.6 nM protein
- reported-conditions: tags: N-His6-TEV cleaved; C-SNAP kept, Cy3B-labelled; label: tethered on chip by stalled RNA polymerase
Measured pKd of individual entries
Note on pKd: it is the negative log10 of concentration, concentration in mol/L.

1) Ie_S2_P3E.2_K3.1_C3.2_H3.1_[+4CC]_A3.1_F3.1_T3.2 (ssRNA) RNA: UUUGAUUAAUAUGAUAUCGUUCUUUCUCUUGUACCUAUAUAUUCUUUCUCGAUAUCAUAUUAAUCUUU	8.63
2) UCUCUUCAAACACUAUAUAUCUCUU (ssRNA) [Id_i_S1_P3E.7_K3.3_C3.3_[T-3C]_[C-2A]_[T-1A]_H3.3_A3.1_F3.1_T3.2]	5.69

Now look at this one.
pKd for UCUCUUUGUAAUCGAUCUCUU (ssRNA) [Ic_S1_P4E.1_K4.1_C4.1_H4.1_A4.1_[T5A]_[A6T]_[T7C]_F4.1_[T8G]_T4.1] ?
5.93
